Hello, the source for this data is PubChem BioAssay, in case you need it.

Catalogue of viability values
- testDetails: HUVEC growth inhibition – cell-based, human, primary screen (AID 575);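 note: 100% = median of untreated cell wells with 0.1% DMSO on each plate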
- conditionParameters: HUVEC proliferation, CellTiter-Glo luminescence, 72 h; at 10 µM; active compounds read low
Kindly answer with a numeric value in %, unit omitted.

Check out these entries, answers already filled in.
COc1ccc(CC(=O)NCc2nnc(SCC(=O)Nc3nccs3)n2-c2ccccc2)cc1    98.4
Cc1cccc(-n2ncc3c(N(CCO)CCO)ncnc32)c1    78.7
CCOc1ccc(N(CC(=O)NC2CCCCC2)S(=O)(=O)c2c(C)noc2C)cc1    87.3
CC(C)CCn1c(NCCc2ccccc2)nc2c1c(=O)n(C)c(=O)n2C    50.8
COc1ccccc1-c1nnc(SCC(=O)NC2CCCCC2)o1    89.7

Now consider the entry below.
Query: Form field: reported viability of Cn1c(=O)oc2cc(S(=O)(=O)NC3CCN(Cc4ccccc4)CC3)ccc21
Reply: 90.9

====

Parameter: inhibition. Scope: all listed entries.
- testDetails: yeast transport mutant growth inhibition pilot in 384-well plates, post-Golgi transport modulator project (AID 636)
- conditionParameters: absorbance 615 nm, about 18 h, active compounds read high
Only the number, expressed in %, is required.

Query: Entry COc1cccc(NC(=O)c2ccco2)c1 has what inhibition?
Reply: -3.38

Query: Then O=C(Cn1ncc2c1-c1ccccc1OC2)Nc1ccc(Cl)cn1 ?
Reply: -0.26

Query: Another compound to check: C=CCn1c(=O)n(CCOC)c(=O)c2sc3ccccc3c21
Reply: -0.53

Query: And the next one, O=C(NCc1cccs1)C(Cc1ccccc1)n1cccc1 (centres undefined) ?
Reply: -1.67

====

- testDetails: viability of PTEN-null HCT116 cells – cell-based, HCT116 clonal line, CellTiter-Glo, pilot screen (AID 824);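 note: 0% = 20 µM Hyamine control and 100% = vehicle cell control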
- conditionParameters: HCT116 PTEN-deleted viability, 60 h, at 10 µM
Records with an inconclusive call do not appear. Active and inactive are the calls of the source.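 How the source made its calls: active means viability at or below 27.92% in each of two runs, the all-compound median minus 4 SD; inconclusive means no clear call, values can overlap the other calls; inactive means the rest.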
Classes to choose from: yes = active, no = inactive

Please review the following examples before continuing.
COc1ccc(CC(=O)Nc2cc(=O)n(C)c(=O)n2C)cc1    no
O=C(Nc1ccc(Cl)c(Cl)c1)c1ccncc1    no
O=S(=O)(c1ccccc1)N1CCN(S(=O)(=O)c2ccccc2)C1    no
CC(=O)C1=C(C)Nc2ncnn2C1c1cccc(OCc2ccccc2)c1 (stereo not given)    no

Query: Per the records of this test, what outcome belongs to Cc1ccc(OCC(O)CN2C(=O)NC(C)(C)C2=O)cc1C (stereo not given) ?
Reply: no

Query: Try this compound next: O=C(NCCN1CCCCCC1)c1ccc(CS(=O)(=O)c2ccc(Br)cc2)o1
Reply: no

Query: Same for CCOCCCNC(=O)C(NC(=O)c1ccccn1)c1ccc(C)cc1 (stereo not given)
Reply: no

Query: Quick one: CCN(CC)c1ccc(NC(=O)c2nc3nc(C)cc(C(F)F)n3n2)cc1
Reply: no

Query: Repeat for the following compound: CCOC(=O)CSc1nnc(Cn2c(=O)sc3ccccc32)n1C
Reply: no

====

In this section we review reported inhibition values for a set of compounds.
- testDetails: RAM pathway blockade in budding yeast – dse1pr::URA3 reporter, 5-FOA selection, pilot screen (AID 869);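 note: 0% = DMSO wells with no growth and 100% = 10 µM 1-NA-PP1 with full growth; RAM network block rescues cells from 5-FOA so hits raise OD615 growth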
- conditionParameters: S. cerevisiae dse1pr::URA3 5-FOA growth, OD615, 2 d; at 10 µM; active compounds read high; strain carries analog-sensitive mutant Cbk1 kinase
Respond with the bare value in %.

The cases that follow already have their inhibition on record.
O=C(c1ccc(Br)o1)N(Cc1ccccc1)c1ccccn1    1.94
CCC(C)NC(=O)CS(=O)Cc1nc(-c2cccc(C)c2)oc1C (stereo unspecified)    1.52
CC1CCCN(C(=O)c2cc3c(-c4ccc(Cl)cc4)nn(C)c3s2)C1 (stereo unspecified)    2.07

Query: Looking for the measured inhibition of CCCCN=CC1=C(O)C(C(=O)OC)C(C)(C)CC1=O (stereo unspecified) , can you help?
Reply: 0.72

Query: Also O=[n+]1c2c(n([O-])c3c1CCCC3)CCCCC2 , if possible.
Reply: 0.345

Query: Now consider Cc1ccc(C)c(NC(=O)C2CC=CCC2C(=O)O)c1 (stereo unspecified) and answer again.
Reply: 1.96
